study target: Cytochrome P450 2C19 (Homo sapiens) (UniProt P33261)
Sequence (P33261 whole entry, looked up): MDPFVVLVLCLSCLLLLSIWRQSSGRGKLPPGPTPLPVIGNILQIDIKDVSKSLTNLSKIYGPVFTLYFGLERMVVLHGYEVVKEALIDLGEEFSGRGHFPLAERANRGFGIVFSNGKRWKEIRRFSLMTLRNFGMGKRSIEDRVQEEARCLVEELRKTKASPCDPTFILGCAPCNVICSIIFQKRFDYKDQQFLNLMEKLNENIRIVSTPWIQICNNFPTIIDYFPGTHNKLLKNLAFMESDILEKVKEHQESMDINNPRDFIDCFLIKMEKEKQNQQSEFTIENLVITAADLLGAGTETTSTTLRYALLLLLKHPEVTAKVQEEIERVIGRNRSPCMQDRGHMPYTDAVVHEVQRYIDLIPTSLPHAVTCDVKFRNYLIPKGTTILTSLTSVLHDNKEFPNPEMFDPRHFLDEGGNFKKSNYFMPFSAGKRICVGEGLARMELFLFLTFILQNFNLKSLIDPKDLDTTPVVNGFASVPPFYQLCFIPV
test description: Cytochrome panel assay with activity outcomes; for activity, negative = inhibition: % is set by controls: 0 for no effect and ±100 for the full control effect
assay setup: recombinant CYP, pro-luciferin dealkylation, luminescence, p450-cyp2c19; series mostly up to 57.1 µM
The campaign covered roughly 16,000 compounds. About 5,800 (36%) were called active. About 23% were inconclusive and are not listed. Some of the results follow.
Reported values of activity, negative = inhibition for individual entries

Item CC1(C)O[C@H]2[C@@H](O1)[C@@H](On1nnc3ccc(Cl)cc31)O[C@@H]2[C@@H]1COC(C)(C)O1 : provide activity, negative = inhibition
17% [at 11.4 µM] (inactive)

Item Nc1nc(=O)c2[nH]cnc2n1O : provide activity, negative = inhibition
-10.6% [at 11.4 µM] (inactive)

Item CC(C)CO/N=C1/C[C@@H](O)[C@@H](O)[C@@H]2[C@@H]3C(=O)N(C[C@@H]4CCCO4)C(=O)[C@H]3CC[C@@H]12 : provide activity, negative = inhibition
-18.3% [at 11.4 µM] (inactive)

---

study target: Cytochrome P450 2C19 (Homo sapiens) (UniProt P33261)
test description: Cytochrome panel assay with activity outcomes
assay setup: recombinant CYP, pro-luciferin dealkylation, luminescence, p450-cyp2c19; series mostly up to 57.1 µM
Hit rate of the full screen: of about 16,000 compounds, about 5,800 (36%) were called active. Roughly 23% stayed inconclusive and do not appear here. Calls come from the whole dose curve; as a rule, active = well fitted curve in the direction sought with a large enough effect; inconclusive = small, poorly fitted or top-dose-only effect, or effect the other way; inactive = no such curve, though single readings can be large or run the other way. The list shows a part of the results.
Respond with a class label; see class 1 for active, class 0 for inactive

These solved cases illustrate the format of a correct answer.
compound	assigned category
COc1ccc(-n2c(=O)c(-c3cccs3)nc3cnc(N4CCN(C)CC4)nc32)cc1	class 0
FC(F)(F)c1ccccc1-c1cncnc1NCCc1cnc[nH]1	class 1
CC(=O)NCCNc1nc(-c2ccccc2C)nc2ccccc12	class 0
COc1ccc2c(c1)-c1ccccc1S(=O)(=O)N2C	class 1

Proceed to the following item.
Just curious, what result did Cc1ccccc1C(C(=O)NC1CCCC1)N(C(=O)Cc1cccs1)c1ccc2c(c1)OCCO2 (stereo not given) get here?
class 1

---

study target: Cytochrome P450 2C19 (Homo sapiens) (UniProt P33261)
test description: Cytochrome panel assay with activity outcomes
assay setup: recombinant CYP, pro-luciferin dealkylation, luminescence, p450-cyp2c19; series mostly up to 57.1 µM
Hit rate of the full screen: of about 16,000 compounds, about 5,800 (36%) were called active. Roughly 23% stayed inconclusive and do not appear here. Calls follow the shape of the dose curve; as a rule, active = well fitted curve in the direction sought with a large enough effect; inconclusive = small, poorly fitted or top-dose-only effect, or effect the other way; inactive = no such curve, though single readings can be large or run the other way. The list shows a part of the results.
Respond with a class label; see 1 = active, 0 = inactive

molecule	assigned category
O=C(CSCc1cccc(Br)c1)N/N=C/c1ccc2c(c1)OCO2	1
Clc1ccc(CSCCc2ccncc2)cc1Cl	1
O=C(Nc1ccc2nc(SCc3ccc(Cl)cc3)sc2c1)c1ccccc1C(=O)N1CCOCC1	1

Just curious, what result did CC(=O)NC(Cc1ccc(F)cc1)C(=O)O (stereo unspecified) get here?
0

Just curious, what result did CC(C)OC(=O)CC12CN(C)CC(CC(=O)OC(C)C)(CN(C)C1)C2=O get here?
0

Just curious, what result did Cn1sc(NC(=O)c2ccccc2)nc1=O get here?
0

Just curious, what result did Cc1ccc2oc(-c3cccc(NC(=S)NC(=O)/C=C/c4ccco4)c3)nc2c1 get here?
1

---

study target: Cytochrome P450 2C19 (Homo sapiens)
test description: Cytochrome panel assay with activity outcomes
assay setup: recombinant CYP, pro-luciferin dealkylation, luminescence, p450-cyp2c19; series mostly up to 57.1 µM
Hit rate of the full screen: of about 16,000 compounds, about 5,800 (36%) were called active. Roughly 23% stayed inconclusive and do not appear here. Calls come from the whole dose curve; as a rule, active = well fitted curve in the direction sought with a large enough effect; inconclusive = small, poorly fitted or top-dose-only effect, or effect the other way; inactive = no such curve, though single readings can be large or run the other way. Some of the results follow.
Respond with a class label; see yes (1) (active), no (0) (inactive)

These solved cases illustrate the format of a correct answer.
compound	assigned category
O=C(COC(=O)c1cccnc1Nc1cccc(C(F)(F)F)c1)NCc1ccc2c(c1)OCO2	yes (1)
CN(C)Cc1ccccc1-c1nccc(NC2CC2)n1	no (0)
CN(C)CCNc1oc(COc2ccc(Cl)cc2Cl)nc1C#N	no (0)
O=C(COC(=O)c1ccccc1Nc1cccc(C(F)(F)F)c1)NCc1ccco1	yes (1)
COc1ccc(C(=O)N2CCC3(CCCN(Cc4ccncc4)C3)CC2)cc1	no (0)

Just curious, what result did CNCCCCCCCCSc1nc(C(C)C)ccc1C(=O)c1cccs1 get here?
yes (1)

Just curious, what result did NCCSSCCN get here?
no (0)

Just curious, what result did O=c1c(-c2ccccc2)nc2cnc(N3CCOCC3)nc2n1C1CC1 get here?
no (0)

Just curious, what result did O=C(NCCc1ccc(Cl)cc1)Nc1cccc(Cl)c1 get here?
yes (1)

Just curious, what result did Cc1noc(C)c1-c1nc(Nc2ccc(F)cc2)c2ccccc2n1 get here?
yes (1)

Just curious, what result did CNc1cc(-c2c(C)noc2C)ncn1 get here?
no (0)

Just curious, what result did CC(=O)Nc1ccc(C(=O)NNC(=O)CCc2ccccc2)cc1 get here?
no (0)

Just curious, what result did CS(=O)(=O)c1nc(-c2ccccc2)cc(-c2ccccc2)c1C#N get here?
yes (1)

Just curious, what result did Cc1ccccc1C(=O)NC(C)c1ccc2c(c1)CCCC2 (stereo not drawn) get here?
yes (1)

Just curious, what result did CCOC(=O)CCc1c(C)nc2ncnn2c1C get here?
no (0)

Just curious, what result did C=CCOc1cccc(/C=N/NC(=O)C(=O)NCc2ccco2)c1 get here?
no (0)

Just curious, what result did O=[N+]([O-])c1ccc(/C=N/Nc2cc(Cl)nc(-c3ccccc3)n2)cc1 get here?
no (0)

Just curious, what result did CCC(=O)Nc1cccc(C(=O)/C=C/c2ccccc2)c1 get here?
yes (1)

Just curious, what result did C=CCNC(=O)c1cccn1-c1ccsc1C(=O)OC get here?
no (0)

Just curious, what result did COc1ccc2nc(N3C(=O)CC(Cc4ccc(Cl)cc4)C3=O)sc2c1 (stereo not drawn) get here?
yes (1)

Just curious, what result did COc1cccc(-c2nccc(NCc3ccc(OC)cc3OC)n2)c1 get here?
yes (1)

Just curious, what result did Nc1nnc(CC(=O)N/N=C/c2cccc([N+](=O)[O-])c2)s1 get here?
no (0)

Just curious, what result did CN1Cc2c(C(=O)OC(C)(C)C)ncn2-c2ccsc2C1=O get here?
yes (1)

Numbers sourced from PubChem BioAssay AID1851.
